Where these numbers come from: ChEMBL document CHEMBL1140024

Molecular target: Peroxisome proliferator-activated receptor gamma (Homo sapiens, UniProt P37231)
Sequence (P37231 whole entry, the tested form may be a part): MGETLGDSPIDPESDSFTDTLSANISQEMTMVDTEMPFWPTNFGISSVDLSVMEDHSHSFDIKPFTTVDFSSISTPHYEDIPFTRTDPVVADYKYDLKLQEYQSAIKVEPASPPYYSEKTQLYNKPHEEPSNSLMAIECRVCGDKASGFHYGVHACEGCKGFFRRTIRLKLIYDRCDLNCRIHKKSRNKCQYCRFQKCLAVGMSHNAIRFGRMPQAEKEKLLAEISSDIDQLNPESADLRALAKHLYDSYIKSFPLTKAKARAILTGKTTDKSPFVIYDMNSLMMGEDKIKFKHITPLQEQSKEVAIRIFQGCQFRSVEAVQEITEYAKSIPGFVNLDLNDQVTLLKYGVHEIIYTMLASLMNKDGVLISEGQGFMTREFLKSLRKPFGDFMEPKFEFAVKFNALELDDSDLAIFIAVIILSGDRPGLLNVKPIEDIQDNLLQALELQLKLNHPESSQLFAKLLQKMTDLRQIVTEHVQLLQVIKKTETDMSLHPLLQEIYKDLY
Test: Agonist activity at human recombinant PPARgamma by GAL4 transactivation assay
Format: functional
Settings: read-out: EC50
READOUT_LABEL: pEC50
Remember, pEC50 is on a log scale: it is -log10 of the molar concentration.

Query: Identify measured pEC50 obtained with Peroxisome proliferator-activated receptor gamma (Homo sapiens, UniProt P37231) for CCC(Oc1cccc(CN(CCCOc2ccc3c(c2)OCO3)c2nc3ccccc3o2)c1)C(=O)O (stereo not drawn) .
Result: 5.74

Query: // fetch pEC50 for CC(C)(Oc1cccc(CN(CCCOc2ccccc2)c2nc3ccccc3o2)c1)C(=O)O ; system: Peroxisome proliferator-activated receptor gamma (Homo sapiens, UniProt P37231)
Result: 5.30

Query: Report measured pEC50 on Peroxisome proliferator-activated receptor gamma (Homo sapiens, UniProt P37231); entry: CCC(Oc1cccc(CN(CCCOc2ccc(F)c(F)c2)c2nc3ccccc3o2)c1)C(=O)O (stereo not drawn)
Result: 5.74

Query: Quote Peroxisome proliferator-activated receptor gamma (Homo sapiens, UniProt P37231) pEC50 for entry CCC(Oc1cccc(CN(CCCOc2ccc(F)cc2F)c2nc3ccccc3o2)c1)C(=O)O (stereo not drawn) .
Result: 5.68

Query: Quote pEC50 with test system Peroxisome proliferator-activated receptor gamma (Homo sapiens, UniProt P37231) for CCC(Oc1cccc(CN(CCCOc2ccccc2)c2nc3cccc(F)c3o2)c1)C(=O)O (stereo not drawn)
Result: 6.28

Query: Report value only: pEC50, Peroxisome proliferator-activated receptor gamma (Homo sapiens, UniProt P37231), CC[C@H](Oc1cccc(CN(CCCOc2ccccc2)c2nc3ccccc3o2)c1)C(=O)O
Result: 6.06

Query: Tell me its pEC50 on Peroxisome proliferator-activated receptor gamma (Homo sapiens, UniProt P37231): CCC(Oc1cccc(CN(CCCOc2ccccc2)c2nc3c(O)cccc3o2)c1)C(=O)O (stereo not drawn)
Result: 5.70
